- Target or test system: UniProt:P28223
- Sequence (P28223 whole entry): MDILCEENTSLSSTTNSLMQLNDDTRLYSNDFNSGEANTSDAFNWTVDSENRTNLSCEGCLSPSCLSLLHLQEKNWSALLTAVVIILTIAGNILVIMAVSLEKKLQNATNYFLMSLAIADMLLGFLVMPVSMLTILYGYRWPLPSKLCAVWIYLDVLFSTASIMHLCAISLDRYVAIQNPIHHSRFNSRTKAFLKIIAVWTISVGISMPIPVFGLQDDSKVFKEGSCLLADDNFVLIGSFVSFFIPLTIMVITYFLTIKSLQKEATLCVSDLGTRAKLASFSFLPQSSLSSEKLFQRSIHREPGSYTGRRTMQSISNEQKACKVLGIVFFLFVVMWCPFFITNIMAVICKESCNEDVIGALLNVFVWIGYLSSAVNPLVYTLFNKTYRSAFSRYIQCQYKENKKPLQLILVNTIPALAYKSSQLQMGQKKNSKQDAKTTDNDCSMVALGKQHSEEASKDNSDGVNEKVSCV
Reported metric: Ki (µM)

Record smiles | Reported metric | Measurement
NCCCCNC(=O)COc1ccc(CCCn2ncc3c2nc(N)n2nc(-c4ccco4)nc32)cc1 | Ki | 3.36

----------
- Target or test system: mA3AR (Mus musculus)
- Construct: expressed in transfected cells; host or cells: HEK-293
- Sequence (Q61618 1-319): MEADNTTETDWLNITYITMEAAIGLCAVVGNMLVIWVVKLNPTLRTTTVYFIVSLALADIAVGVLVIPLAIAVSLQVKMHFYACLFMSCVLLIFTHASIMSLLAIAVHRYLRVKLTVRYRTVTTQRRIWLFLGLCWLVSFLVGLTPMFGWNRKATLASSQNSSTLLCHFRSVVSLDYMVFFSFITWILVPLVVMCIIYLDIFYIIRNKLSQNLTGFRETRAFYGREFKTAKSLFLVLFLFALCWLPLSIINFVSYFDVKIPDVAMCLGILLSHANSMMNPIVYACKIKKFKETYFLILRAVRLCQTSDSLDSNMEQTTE
- Protocol text: Competition radioligand binding, mA3AR
- Condition notes: mouse A3AR, percent inhibition at 10 μM; read-out: % inhib, A3 (m) (converted)

Compound | inhibition at 10 µM [%]
Nc1nc2c(cnn2CCCc2ccc(OCC(=O)NCCCCNC(=O)CCCCCNC(=O)COc3ccc(/C=C/C4=[N+]5C(=Cc6ccc(-c7cccs7)n6[B-]5(F)F)C=C4)cc3)cc2)c2nc(-c3ccco3)nn12 | 2
N.Nc1nc2c(cnn2CCCc2ccc(OCc3ccc(S(=O)(=O)O)cc3)cc2)c2nc(-c3ccco3)nn12 | 4
CCN(CC)CC.CCN(CC)CC.N=c1ccc2c(-c3ccc(C(=O)NCCCCNC(=O)COc4ccc(CCCn5ncc6c5nc(N)n5nc(-c7ccco7)nc65)cc4)cc3C(=O)O)c3ccc(N)c(S(=O)(=O)O)c3oc-2c1S(=O)(=O)O | 5
CC1(C)C(/C=C/C=C/C=C2/N(CCCS(=O)(=O)O)c3ccc(S(=O)(=O)O)cc3C2(C)CCCCCC(=O)NCCNC(=O)COc2ccc(CCCn3ncc4c3nc(N)n3nc(-c5ccco5)nc43)cc2)=[N+](CCCS(=O)(=O)O)c2ccc(S(=O)(=O)[O-])cc21 (stereo not shown) | 4

Origin of measurements: paper PMC5729930
